EXPERIMENT: yeast display, Sf9 membrane polyspecificity reagent, FACS + sequencing; frameworks hold sequencing errors
PROPERTY: polyreactivity (PSR sort gate)

QVQLVESGGGLVQAGGSLRLSCAASGGPFTYYTMGCYRQAPGKERELVAAISTGGRTYYADSVKGRFTISRDNAKNTVYLQMNCLKAEATAVYYCYPLYDETDVLGEFDYWGQGTQVTVSS :: low polyreactivity
QVQLQDSGGVQAGGSLRLSCAASGYISRSDVMGWYRQAPGKERELVATIINGTITYYADSVKGRFPISRDNAKNTVYLQMNSLNPEDTAVQYCAVVQSDTDSLYYWGQGTQVTVSS :: low polyreactivity

====

EXPERIMENT: yeast display, Sf9 membrane polyspecificity reagent, FACS + sequencing; frameworks hold sequencing errors
PROPERTY: polyreactivity (PSR sort gate)

Example sequences with recorded polyreactivity (PSR sort gate):
QVQLVESGGGLVQAGGSLRLSCAASGSTFPDNAMGWYRQAPGKERELVAAISWSGGSTNYADSVKGRFTISRDNAKNTVYLQMNSLKPEDTAVYYCNADDASHYYFRDEYWGLGTQVTVSS :: low polyreactivity
QVQLVESGGGLVQAGGSLRLSCAASGRIFDRYVMGWYRQAPVKERALVAAISDGGSTYYADSVKGRFTISRDNAKNTVYLQMISLKPEDTAVYYCNAAFYPNENYYLIYDYWGQGTQVTVSS :: low polyreactivity
QVQLGESGGGLVQAGGSLRLTCAASGLIFYRNARGWYRQAPGKERELVAAISKNGGNTYYADSVKGRFTISRDYAKNTVYLQMNSLKPEDTAVYYCAARELYGPFGYWGQGTQVTVSS :: high polyreactivity
QDQRVESAGGLVQAGGSLRLSCAASGNIFDPNAMGGYRQAPGKERELVAAIRRGGSTNYADSVKGRFTISRDNAKNTVYLQMISLKPEDTAVYDCDKSRVSFTDLEGYYWGQGTLVTVSS :: low polyreactivity

Return reported polyreactivity (PSR sort gate); argument: QVQLVESGGGLVQAGGSLRLSCAASGRIFYLYAMGWYRQAPGKERELVAGITSGGRTNYADSVKGRFTISRDNAKNTVYLQMNSLKPEDTAVYYCAAYYWGRYTGYYWGQGTQVTVSS
high polyreactivity

====

EXPERIMENT: yeast display, Sf9 membrane polyspecificity reagent, FACS + sequencing; frameworks hold sequencing errors
PROPERTY: polyreactivity (PSR sort gate)

QVQLVESGGGLVQAGGSLRLSCAASGSIFTYYAMGWYRPAPGKERELVATITRRGGRTYYADSVKGRFTISRDNAKNTVYLQMNSLKPEDTAVYYCATRIRTVAYNYWGQGTQVTVSS :: high polyreactivity
QVQLVESGGGLVQAGGSLRLSCAASGSTFGYNAMGWYRQAPGKEREFVATIRYSGDRTYYADSVKGRFTISRDNAKNTVYLQMNSLKPEDTAVYYCAADLYYNSYGRYGRYYYWGQGTQVTVSS :: high polyreactivity
QVQLVESGGGLVQAGGSLRLSCAASGSIFRFYAMGWYIQAPGKERELVAGITWSGASTYYADSVKGRFTISRDNAKNTVYLQMNSLKPEDNAVYYCSAKSLIVRYDSWGQGTQVTVSS :: high polyreactivity
QVQLVESGGGLVQAGGSLRLSCAASGSIFWLYAMGWYRQAPGKERELVAAIDSGDSTKYADSVKGRFTISRDNAKNTVYLQMNSLKPEDTAVYYCNVRLGDRFFRHDYWGQGTQVTVSS :: low polyreactivity
QEQLQESGGGLVQAGGSLRLSCAASGSISGSSTMGWYRPAPGKERELVASIAVGANTNYADSAKGRFTISRDNAKNTVYLQMNSLKPEDTAVYYCAVDYYIYYFHYWGQGTQVTVSS :: high polyreactivity

Return reported polyreactivity (PSR sort gate); argument: QDQLVESVGGLDQAGVSLRLSCAASGFIFRAYAMGWYRQAPGKERELVAAITKRSGTTYYADSVKGRFTISRDNAKNTVYLQMNSLKPEDTAVYYCAAKTLYNSGTQDRAMGYWGQGTQVTVSS
high polyreactivity

Return reported polyreactivity (PSR sort gate); argument: QVQLVESGGGIVQAGGSLRLSSAASGSIFYYYAKGWYRQAPGKERELVATINISDGSTYYADSVKGRFTISRDNAKNTVYLQMNSLKPEDTAVYYCAAYYYFLDYDYWGQGTQVTVSS
low polyreactivity

Return reported polyreactivity (PSR sort gate); argument: QVQLVESGGGLVQAGGSLRLSCAASGGTFTGYAMGWYRQAPGKERELVAAIRSRGGSTYYADSVKGRFTISRDNAKNTVYLQLNSLKPEDTAFYYCNAVSRFSYGYDYWGQGTQVSVSS
high polyreactivity

Return reported polyreactivity (PSR sort gate); argument: QVQLVESGGGLVQPGGSLRLSCAASGLTFDDNAKGWYRHAPGKERELVAAISKSGDGTYYADSVKGRFTISRDNAKNTVYLHMNSLKPEDTAVYYCNADAKYWRYVYWWFGDDYWGQGTQVTVSS
low polyreactivity

Return reported polyreactivity (PSR sort gate); argument: QVQLVESGGGLVQAGGSLRLSCAPSGSTYLSYAMGWYRQAPGKERELVAAITYSGGRTYYAESVKGRFTISRDNAKITVYLQMNSLKQEDTAVYYCAATGVFRDEYWGQGTQVTVSS
low polyreactivity

====

EXPERIMENT: yeast display, Sf9 membrane polyspecificity reagent, FACS + sequencing; frameworks hold sequencing errors
PROPERTY: polyreactivity (PSR sort gate)

Example sequences with recorded polyreactivity (PSR sort gate):
QVQLVESGGGLVQAGGRLRLSCAASGSIILFKDMGWYGQAPGKERELVADITWSGGSTYYADSVKGRFTISCDNAKNTVYLQMHSLKPEDTAVDYCADDPDYYFTRGNYQWGYYWGQGTQVTVSS :: low polyreactivity
QVQLVESGGGLVQAGGSLRLSCAASGRIFYSNTMGWYRQAPGKERELVARIDTGGGSTYADSVKGRFTISRDNAKNTVYLQMNSLKPEDTAVYYCAKTIAVNTWYYYWGQGTQVTVSS :: low polyreactivity
QVQLVESGGGLVQAGGSLRLSCAASGSIFVKYAMGWYRQAPGKERELVAAISRNGGSTYYADSVKGRFTISRDNAKNTVYLQMNSLKPEDTAVYYCNKVRPGWTYEYGYWGQGTQVTVSS :: high polyreactivity
QVQLVESGGGLVQAGGSLRLSCAASGRIFGQYAMGWYRQAPGKERELVASISRRGGSKNYADSVKGRFTISRDNAKNTVYLQMNSRKPEDTAVYYCATGRTWILQKLDYWGQGTQVPVSS :: high polyreactivity

Return reported polyreactivity (PSR sort gate); argument: QVQLVESGGGLVQAGGSLRLSCAASGSTFTHYDMGWYRQAPGKERELVADISRSGGRTYYADSVKGRFTISRDNAKNTVYLQMNSLKPEDTAVYYCATEFEHINGVNQGPYIDDYSWGQGSQVTVSS
low polyreactivity

Return reported polyreactivity (PSR sort gate); argument: QVQLVESGGGLVQAGGSLRLSCAASGRIFIANTMGCYRQAPGKERELVAAITQRGDSTYYADSVKGRFTISRDNAKNTVYLQMNSLKPEDTAVYYCAARYYLSSYVRYNYWGQGTQVTVSS
high polyreactivity

Return reported polyreactivity (PSR sort gate); argument: QDQLVESGLGIVQAGGSLRLSCAASGYTFSQYSMGWYRQAPGKERELVAAIDSGSKTKYADSVKGRFTISRDNAKNTVYLQMNSLKPEDSAVYYCAADDSYRSIGGDYWGQGTQVTVSS
low polyreactivity

====

EXPERIMENT: yeast display, Sf9 membrane polyspecificity reagent, FACS + sequencing; frameworks hold sequencing errors
PROPERTY: polyreactivity (PSR sort gate)

QVQLVESGGGLVQAGGSLRLSCAASGRIFAAYAMGWYRQAPGKERELVAGISRGGRTYYADSVKGRFTISRDNAKNTVYLQMNSLKPEDTAVYYCAKRATGQYSITTYGYDYWGQGTQVTVSS :: low polyreactivity
QVQLVESGGGLVQAGGSLRLSCAASGSTILSNAMGWYRQAPGKERELVADITSGGSTYYADSVKGRFTISLDNAKNTVYLQMNSLKQEDTAVYYCAVRYYLRRYDYWGQGTQVTVSS :: low polyreactivity

====

EXPERIMENT: yeast display, Sf9 membrane polyspecificity reagent, FACS + sequencing; frameworks hold sequencing errors
PROPERTY: polyreactivity (PSR sort gate)

Example sequences with recorded polyreactivity (PSR sort gate):
QVQLVESGGGLVQAGGSLRLSCAASGRTFGWNVMGWYRQAPGKERELVAAISGSGASTYYADSVKGRFTISRDNAKNTVYLQMNSLKPEDTAVYYCAAVQGYRFYEYYYWGQGTKVTVSS :: low polyreactivity
QVQLVESGGGLVQAGGSLRLSCAASGSTFIYYAMGWYRQAPGKERELVASISRSGGSTYYADSVKGRFTISRDNAKNTVYLQMNSLKPEDTAVYYCAAVGWTYEYWEWYDYWGQGTQVTVSS :: high polyreactivity
QVQLVESGGGLVQAGGSLRLSCAASGSTFHRKAMGWYRQAPGKERELVASISIGGSTNYADSVKGRFTISRDNAKNTVYLQMNSLKPEDTAVYYCATEPNPRRPRVDYDYWGQGTQVTVSS :: low polyreactivity
QVQLVESGGGLVQAGGSLRLSCAASGFIFLRYGMGWYRKAPGKERELVASIDSTGGSTYADSVKGRFTISRDNAKNTVYLQMNSLKPEDTAVYYCAAAYYIVSERDYWGQGTQVTVSS :: low polyreactivity

Return reported polyreactivity (PSR sort gate); argument: QVQLVESGGGLVQAGGSLRLSCAASGRIFRYYAMGWYRQAPGKERELVAAISSRGGSTYYADSVKGRFTISRDNAKNSVYLQMNSLKPEDTAVYFCDKAVFYGPSERNYGLDYWGQGTQVTVSS
high polyreactivity

Return reported polyreactivity (PSR sort gate); argument: QVQLVESGGGLVQAGGSLRLSCAASGYTFGKYAMGWYRQAPGKERELVAGISSRGGSTYYADSVKGRFTISRDNAKNTVYLQMNSLKPEDTAVYYCAAVAYTGGPRKLGFNYWGQGTQVSVSS
high polyreactivity

Return reported polyreactivity (PSR sort gate); argument: QVQLVESGGGLVQAGGSLRLSCAASGSTFIYNAMGWYRQAPGKERELVAAITWNGGSTYYADSVKGRFTISRDNAKNTVYLQMNSLKPEDTAVYYCAVDKGSQPHYDYWGQGTQVTVSS
low polyreactivity

Return reported polyreactivity (PSR sort gate); argument: QVQLVESGGGLVQAGGSLRLSCAASGRIIYKNAMGWYRQAPGKERELVAAITSSGGSTYYADSVKGRFTISRDNAKNTVYLQMYSLKPEDTAVYYCATDWPHWRKVYWFDYWGQGTQVTVSS
low polyreactivity
